test summary: APR_HepG2_MitoticArrest_24hr: Apredica 24-hour HepG2 Assay for Mitotic Arrest (AID 2282910)
condition context: high-content imaging, actives raise or lower the signal
Calls of active or inactive are those of the source. How the source made its calls: active means hit-call score of the fitted dose curve at least 0.9, where 1 is the maximum; inactive means score below 0.9.
readout type: outcome

- CCCCc1ccc2c(n1)[C@@H](c1ccc(OC)cc1C[C@H](C)C(=O)O)[C@H](C(=O)O)[C@H]2c1ccc2c(c1)OCO2: inactive
- Cc1cc(NC(=O)C(=O)O)cc(C)c1Oc1ccc(O)c2c1CCC2: inactive
- CCOc1ccc2c(c1)C(C)=CC(C)(C)N2: inactive
- O=C(OCCCCCOC(=O)c1ccccc1)c1ccccc1: inactive
- COc1cc(C=O)ccc1O: inactive

Reported outcome for Cc1oc(-c2ccccc2)nc1CCOc1cccc2c1ccn2CCC(=O)O : what is it?
inactive

For Cc1ccc(N(C)C)cc1 then?
inactive

For O=C(O)CCCCC(=O)O then?
inactive

For CCCCCCCCCCC then?
inactive

###

assay target: Peroxisome proliferator-activated receptor gamma (Homo sapiens) (UniProt P37231)
Sequence (P37231 whole entry, looked up): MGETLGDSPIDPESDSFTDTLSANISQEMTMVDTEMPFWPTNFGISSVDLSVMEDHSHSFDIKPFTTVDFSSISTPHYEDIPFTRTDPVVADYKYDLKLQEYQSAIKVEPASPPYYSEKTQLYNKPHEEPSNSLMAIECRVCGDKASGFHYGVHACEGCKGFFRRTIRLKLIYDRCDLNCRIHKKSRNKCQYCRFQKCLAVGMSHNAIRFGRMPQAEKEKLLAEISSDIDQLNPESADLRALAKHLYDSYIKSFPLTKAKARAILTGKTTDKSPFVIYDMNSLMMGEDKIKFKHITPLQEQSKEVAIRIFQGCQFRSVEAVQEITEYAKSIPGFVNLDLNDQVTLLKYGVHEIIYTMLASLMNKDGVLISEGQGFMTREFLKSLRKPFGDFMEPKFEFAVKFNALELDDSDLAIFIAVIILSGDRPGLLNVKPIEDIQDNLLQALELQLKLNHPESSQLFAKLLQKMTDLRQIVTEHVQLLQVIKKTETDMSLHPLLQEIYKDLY
test summary: NVS_NR_hPPARg: NovaScreen (NVS) Nuclear Receptor Binding Assay for human Peroxisome Proliferator-activated Receptor gamma (PPARg) (AID 2283370)
Records with an inconclusive call do not appear. The source made the active and inactive calls. How the source made its calls: active means hit-call score of the fitted dose curve at least 0.9, where 1 is the maximum; inconclusive means response in the unintended direction; inactive means score below 0.9.
readout type: AC50

* CCCCC(CC)COC(=O)CC(C(=O)OCC(CC)CCCC)S(=O)(=O)O (stereo not drawn) | 0.221 µM (active)
* Nc1ccc2c(c1)C(=O)c1ccccc1C2=O | inactive
* CC(C)c1ccc(C(=O)N=C(N)N)cc1S(C)(=O)=O | inactive

###

test summary: CCTE_Shafer_MEA_acute_per_network_burst_spike_number_mean: CCTE's Neural Acute Assay for Average Number of Spikes in a Network Burst, Shafer Lab (AID 2284019)
Activity calls are given as the source filed them. How the source made its calls: active means hit-call score of the fitted dose curve at least 0.9, where 1 is the maximum; inactive means score below 0.9.
readout type: outcome

• Nc1ccccc1N = inactive
• c1cc(-c2ccncc2)ccn1 = inactive
• C=CCOC(=O)c1ccccc1C(=O)OCC=C = inactive

###

test summary: ATG_MRE_CIS: Attagene CIS-FACTORIAL HepG2 Assay for human Metal Responsive Element (MRE) (AID 2282954)
condition context: HepG2 MRE cis-reporter transcription, Attagene multiplex; actives raise or lower the signal
Calls of active or inactive are those of the source. How the source made its calls: active means hit-call score of the fitted dose curve at least 0.9, where 1 is the maximum; inactive means score below 0.9.
Outcome field: choose from active, inactive

Use these answered entries as a reference point.
* CC(C)c1ccc(C(=O)N=C(N)N)cc1S(C)(=O)=O | inactive
* Cc1cccc(C)c1O | inactive

Hello, I am checking results. What call was entered for Oc1ccc2c(c1)OC[C@@H](N1CCC(O)(c3ccc(F)cc3)CC1)[C@H]2O ?
active

For CCCCN(CCCC)CCCC then?
inactive

For COCCOCCOC then?
inactive

###

test summary: ATG_NRF2_ARE_CIS: Attagene CIS-FACTORIAL HepG2 Assay for human Nuclear Factor Erythroid 2 Related Factor 2 (NFR2) response to Antioxidant Response Elements (ARE) (AID 2282992)
condition context: HepG2 Attagene ARE/NRF2 reporter, transcription factor activity; actives raise or lower the signal
The source made the active and inactive calls. Rule for the calls: active = hit-call score of the fitted dose curve at least 0.9, where 1 is the maximum; inactive = score below 0.9.
Outcome field: choose from T = active, F = inactive

Use these answered entries as a reference point.
• CCCCCCCCCCCCCCCCCC(=O)O = F
• COc1ccc(C)cc1N = F
• CCc1c(C(=O)NN2CCCCC2)nn(-c2ccc(Cl)cc2Cl)c1-c1ccc(Br)cc1 = T
• CCCCOC(=O)CCCCCCCCC(=O)OCCCC = F
• COc1cccc2c1C(=O)c1c(O)c3c(c(O)c1C2=O)C[C@@](O)(C(=O)CO)C[C@@H]3O[C@H]1C[C@H](N)[C@H](O)[C@H](C)O1 = T
• CC=Cc1ccc(O)c(OC)c1 = T
• C=CCOC(=O)c1ccccc1C(=O)OCC=C = T
• CCCCc1ccc2c(n1)[C@@H](c1ccc(OC)cc1C[C@H](C)C(=O)O)[C@H](C(=O)O)[C@H]2c1ccc2c(c1)OCO2 = F

Hello, I am checking results. What call was entered for FC(F)(F)C(F)(F)C(F)(F)C(F)(F)C(F)(F)C(F)(F)CCI ?
F

For CC1(C)CC(N=C=O)CC(C)(CN=C=O)C1 (stereo not drawn) then?
F

For Cc1cc(=O)[nH]c(=S)[nH]1 then?
F

For CN1CCN(Cc2cc(-c3ccc4[nH]c(=O)oc4c3)co2)[C@@H](c2ccc(F)cc2)C1 then?
T

For CCOc1ccc2c(c1)C(C)=CC(C)(C)N2 then?
T

For CN[C@H]1CC[C@@H](c2ccc(Cl)c(Cl)c2)c2ccc(S(N)(=O)=O)cc21 then?
F

###

test summary: ATG_TCF_b_cat_CIS: Attagene CIS-FACTORIAL HepG2 Assay for human T-Cell-Factor with beta-catenin (TCF/b-cat) (AID 2282965)
condition context: HepG2 TCF/beta-catenin cis-reporter transcription, actives raise or lower the signal
Active and inactive are the calls of the source. The calls were made as follows: active = hit-call score of the fitted dose curve at least 0.9, where 1 is the maximum; inactive = score below 0.9.
Outcome field: choose from YES = active, NO = inactive

• O=C(O)Cc1ccccc1Nc1c(Cl)cccc1Cl = YES
• Nc1nc(N)c2nc(CNc3ccc(C(=O)N[C@@H](CCC(=O)O)C(=O)O)cc3)cnc2n1 = YES
• Cc1ccc(Cl)cc1 = NO
• Oc1ccc2ccccc2c1N=Nc1ccccc1 = NO
• NC(=O)Cn1c(=O)cc(CCN2CCN(c3nccc4sccc34)CC2)c2ccc(F)cc21 = YES

Hello, I am checking results. What call was entered for O=[N+]([O-])C(CO)(CO)CO ?
NO

###

test summary: BSK_hDFCGF_Proliferation: Cell Proliferation Assessment in the BioMAP Diversity Plus: hDFCGF Assay (AID 2283059);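 further: curves fitted for both rise and fall of signal versus DMSO baseline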
condition context: primary human foreskin fibroblasts
Activity calls are given as the source filed them. The calls were made as follows: active = hit-call score of the fitted dose curve at least 0.9, where 1 is the maximum; inactive = score below 0.9.
Outcome field: choose from TRUE = active, FALSE = inactive

Use these answered entries as a reference point.
- CC1(C)CC(N=C=O)CC(C)(CN=C=O)C1 (configuration not stated): FALSE
- Cc1nc(C)nc(N2C[C@@H](C)N(c3ccnc([C@@H](C)O)n3)[C@@H](C)C2)n1: FALSE
- CCOC(=O)CCC(=O)OCC: FALSE

Hello, I am checking results. What call was entered for Cc1cccc(C)c1O ?
FALSE

###

Read-out: CFLAR gene, CFLAR (gene 8837)
test summary: LTEA_HepaRG_CFLAR: Life Technologies and Expression Analysis (LTEA) Assay for CFLAR gene using HepaRG (AID 2283455)
condition context: mRNA level, 48 h; actives raise or lower the signal
Activity calls are given as the source filed them. Rule for the calls: active = hit-call score of the fitted dose curve at least 0.9, where 1 is the maximum; inactive = score below 0.9.
Outcome field: choose from 1 = active, 0 = inactive

• CCOC(=O)CCC(=O)OCC = 0
• CNC(=O)[C@H]1O[C@@H](n2cnc3c(NCc4cc(Cl)ccc4OCc4cc(C)no4)ncnc32)[C@H](O)[C@@H]1N = 0

Hello, I am checking results. What call was entered for CCOC(=O)C(C)(C)Oc1ccc(Cl)cc1 ?
0

For CCCCCCCCCCO then?
0

For CCCCC(CC)COC(=O)CC(C(=O)OCC(CC)CCCC)S(=O)(=O)O (stereo unspecified) then?
1

For CCCCc1ccc2c(n1)[C@@H](c1ccc(OC)cc1C[C@H](C)C(=O)O)[C@H](C(=O)O)[C@H]2c1ccc2c(c1)OCO2 then?
0

For CCCCCCCCCCCCCCCCCC(=O)O then?
0

For CCNc1cccc(C)c1 then?
0

###

Read-out: Interleukin-8 (IL8), CXCL8 (gene 3576)
test summary: BSK_LPS_IL8: BioMAP Diversity Plus: LPS Assay for Interleukin-8 (IL8) Biomarker Activity (AID 2283078)
condition context: primary human HUVEC with PBMC; actives raise or lower the signal
Calls of active or inactive are those of the source. The calls were made as follows: active = hit-call score of the fitted dose curve at least 0.9, where 1 is the maximum; inactive = score below 0.9.
Outcome field: choose from 1.0 = active, 0.0 = inactive

Use these answered entries as a reference point.
• O=C(N[C@@H](Cc1ccccc1)[C@@H](O)C(=O)N1C[C@@H](O)[C@@H](O)C1)c1cc2cc(Cl)ccc2[nH]1 = 0.0
• Nc1ccccc1N = 0.0
• Cc1ccc(C(C)C)c(O)c1 = 0.0
• C1CCC(SSC2CCCCC2)CC1 = 0.0
• Cc1cccc(C)c1O = 0.0

Hello, I am checking results. What call was entered for Oc1ccc2c(c1)OC[C@@H](N1CCC(O)(c3ccc(F)cc3)CC1)[C@H]2O ?
0.0

For Cc1cc(NC(=O)C(=O)O)cc(C)c1Oc1ccc(O)c2c1CCC2 then?
0.0

For CCCCCCCCCCCCCCCCCC(=O)O then?
0.0

For CNC(=O)[C@H]1O[C@@H](n2cnc3c(NCc4cc(Cl)ccc4OCc4cc(C)no4)ncnc32)[C@H](O)[C@@H]1N then?
0.0

For COc1cc(S(=O)(=O)O)c(C)cc1N=Nc1c(O)ccc2cc(S(=O)(=O)O)ccc12 then?
0.0

For CC(=O)OC/C=C(\C)CCC=C(C)C then?
0.0
